Reported binding of peptide-HLA-E complex to CD94/NKG2A normalized to a fitted Rmax is given for each of the following sequences.
Target: CD94/NKG2A (Homo sapiens, UniProt P26715+Q13241)
Sequence (P26715 94-233 limits assumed): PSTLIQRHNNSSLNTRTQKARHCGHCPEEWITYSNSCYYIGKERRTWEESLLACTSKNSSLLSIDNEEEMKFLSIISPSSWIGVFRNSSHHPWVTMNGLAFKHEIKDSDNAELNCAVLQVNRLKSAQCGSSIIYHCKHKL
Sequence (Q13241 32-179 limits assumed): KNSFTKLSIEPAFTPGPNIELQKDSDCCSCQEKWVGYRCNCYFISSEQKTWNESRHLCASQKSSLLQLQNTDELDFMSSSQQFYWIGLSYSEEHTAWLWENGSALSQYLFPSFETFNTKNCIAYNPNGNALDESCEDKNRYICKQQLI
Assay: Steady-state surface plasmon resonance of peptide-HLA-E complex with CD94/NKG2A
Assay type: binding
Details: CD94/NKG2A concentration 6.4 μM
Where no end group is shown, it is not given here.
Value kind: binding of peptide-HLA-E complex to CD94/NKG2A normalized to a fitted Rmax

[[record]]
sequence_record = "VNPGRSLFL [human5, VNPGRSLFL]"
measured = 0.955

[[record]]
sequence_record = "TLPKRGLFL [human2, TLPKRGLFL]"
measured = 0.618

[[record]]
sequence_record = "QMPSRSLLF [human1, QMPSRSLLF]"
measured = 0.664

[[record]]
sequence_record = "TGPWRSLWI [human3, TGPWRSLWI]"
measured = 0.231

[[record]]
sequence_record = "TAPARTMFL [human13, TAPARTMFL]"
measured = 0.432


====

System: NKG2A−/NKG2C− NK cells
Assay: NK cell activation markers in control NKG2A-/NKG2C- NK cells incubated with peptide and K562 expressing HLA-E
Type: cell-based, human
Conditions: Trial 5
Where no end group is shown, it is not given here.
Reported percentage CD107+ NK cells is given for each of the following sequences.
Value kind: percentage CD107+ NK cells (%)

[[record]]
sequence_record = "VMAPRTLIL [VMAPRTLIL (LIL), positive control peptide, reference compound]"
value_kind = "percentage CD107+ NK cells"
measured = 17.9

[[record]]
sequence_record = "TLPKRGLFL [human2, TLPKRGLFL]"
value_kind = "percentage CD107+ NK cells"
measured = 18.1

[[record]]
sequence_record = "TGPWRSLWI [human3, TGPWRSLWI]"
value_kind = "percentage CD107+ NK cells"
measured = 26.2

[[record]]
sequence_record = "ILTDRSLWL [human4, peptide FBXO41 670-678 derived from the human proteome]"
value_kind = "percentage CD107+ NK cells"
measured = 19.2

[[record]]
sequence_record = "TLPERTLYL [human7, peptide ECEL1 269-277 derived from the human proteome]"
value_kind = "percentage CD107+ NK cells"
measured = 17.2

[[record]]
sequence_record = "NMPARTVLF [human14, peptide MTREX 490-498 derived from the human proteome]"
value_kind = "percentage CD107+ NK cells"
measured = 21.8

[[record]]
sequence_record = "QMPSRSLLF [human1, QMPSRSLLF]"
value_kind = "percentage CD107+ NK cells"
measured = 19.8

[[record]]
sequence_record = "VMPPRTLLL [human15, peptide HLA-A 3-11 derived from the human proteome]"
value_kind = "percentage CD107+ NK cells"
measured = 18.9

[[record]]
sequence_record = "VMPGRTLCF [human11, peptide TACR3 226-234 derived from the human proteome]"
value_kind = "percentage CD107+ NK cells"
measured = 14.9

[[record]]
sequence_record = "VLPHRTQFL [CMV1, novel CMV-derived peptide UL120 72-80, Merlin]"
value_kind = "percentage CD107+ NK cells"
measured = 18.6

[[record]]
sequence_record = "FLPNRSLLF [human8, peptide SLC52A3 354-362 derived from the human proteome]"
value_kind = "percentage CD107+ NK cells"
measured = 20.2

[[record]]
sequence_record = "VMAPQSLLL [VMAPQSLLL (PQS), negative control peptide, reference compound]"
value_kind = "percentage CD107+ NK cells"
measured = 24.4

[[record]]
sequence_record = "VNPGRSLFL [human5, VNPGRSLFL]"
value_kind = "percentage CD107+ NK cells"
measured = 19

[[record]]
sequence_record = "TAPARTMFL [human13, TAPARTMFL]"
value_kind = "percentage CD107+ NK cells"
measured = 22.7


====

Test system: NKG2A−/NKG2C− NK cells
Assay: NK cell activation markers in control NKG2A-/NKG2C- NK cells incubated with peptide and K562 expressing HLA-E
Format: cell-based, human
Settings: Trial 3
Protocol: A human immortalized myelogenous leukemia cell line (K562), which expresses HLA-E was incubated with novel peptides (Table 1) derived from the human proteome or human cytomegalovirus proteome. […] Controls assessments were also performed using NKG2A−/NKG2C− cells (Tables 10-13). Inhibition was indicated by a decrease in percent cells positive for cell surface markers, while activation was indicated by an increase in percent cells positive for cell surface markers.
Where no end group is shown, it is not given here.
Reported percentage CCL3+ NK cells is given for each of the following sequences.
Value kind: percentage CCL3+ NK cells (%)

[[record]]
sequence_record = "NMPARTVLF [human14, peptide MTREX 490-498 derived from the human proteome]"
measured = 44

[[record]]
sequence_record = "VMPPRTLLL [human15, peptide HLA-A 3-11 derived from the human proteome]"
measured = 46.7

[[record]]
sequence_record = "FLPNRSLLF [human8, peptide SLC52A3 354-362 derived from the human proteome]"
measured = 52.4

[[record]]
sequence_record = "VMAPRTLIL [VMAPRTLIL (LIL), positive control peptide, reference compound]"
measured = 46.1

[[record]]
sequence_record = "TGPWRSLWI [human3, TGPWRSLWI]"
measured = 55.4

[[record]]
sequence_record = "ILTDRSLWL [human4, peptide FBXO41 670-678 derived from the human proteome]"
measured = 48.3

[[record]]
sequence_record = "VNPGRSLFL [human5, VNPGRSLFL]"
measured = 53.4

[[record]]
sequence_record = "VMPGRTLCF [human11, peptide TACR3 226-234 derived from the human proteome]"
measured = 44.1

[[record]]
sequence_record = "RMPPRSVLL [human12]"
measured = 46.5


====

Target: CD94/NKG2C (Homo sapiens, UniProt P26717+Q13241)
Sequence (P26717 94-231 limits assumed): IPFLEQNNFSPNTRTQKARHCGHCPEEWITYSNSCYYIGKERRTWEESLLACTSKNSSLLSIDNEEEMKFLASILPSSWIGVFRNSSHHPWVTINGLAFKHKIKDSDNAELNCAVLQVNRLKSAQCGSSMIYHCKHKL
Sequence (Q13241 32-179 limits assumed): as the sequence (Q13241 32-179 limits assumed) above
Experiment: Steady-state surface plasmon resonance of peptide-HLA-E complex with CD94/NKG2C
Format: binding
Conditions: CD94/NKG2C concentration 12.8 μM
Where no end group is shown, it is not given here.
Value kind: binding of peptide-HLA-E complex to CD94/NKG2C normalized to a fitted Rmax

[[record]]
sequence_record = "TGPWRSLWI [human3, TGPWRSLWI]"
measured = 0.130

[[record]]
sequence_record = "VNPGRSLFL [human5, VNPGRSLFL]"
measured = 0.902

[[record]]
sequence_record = "QMPSRSLLF [human1, QMPSRSLLF]"
measured = 0.564

[[record]]
sequence_record = "TLPKRGLFL [human2, TLPKRGLFL]"
measured = 0.443

[[record]]
sequence_record = "TAPARTMFL [human13, TAPARTMFL]"
measured = 0.462


====

Target: CD94/NKG2C (Homo sapiens, UniProt P26717+Q13241)
Assay: Steady-state surface plasmon resonance of peptide-HLA-E complex with CD94/NKG2C
Assay type: binding
Conditions: CD94/NKG2C concentration 3.2 μM
Where no end group is shown, it is not given here.
Please note: YES applies when binding of peptide-HLA-E complex to CD94/NKG2C normalized to a fitted Rmax is 0.2 or greater, and NO applies otherwise.

[[record]]
sequence_record = "TGPWRSLWI [human3, TGPWRSLWI]"
tested_on = "CD94/NKG2C (Homo sapiens, UniProt P26717+Q13241)"
label_class = "NO"

[[record]]
sequence_record = "TLPKRGLFL [human2, TLPKRGLFL]"
tested_on = "CD94/NKG2C (Homo sapiens, UniProt P26717+Q13241)"
label_class = "NO"

[[record]]
sequence_record = "QMPSRSLLF [human1, QMPSRSLLF]"
tested_on = "CD94/NKG2C (Homo sapiens, UniProt P26717+Q13241)"
label_class = "YES"

[[record]]
sequence_record = "VNPGRSLFL [human5, VNPGRSLFL]"
tested_on = "CD94/NKG2C (Homo sapiens, UniProt P26717+Q13241)"
label_class = "YES"


====

Test system: NKG2A+/NKG2C− NK cells
Experiment: NK cell activation markers in NKG2A+/NKG2C- NK cells incubated with peptide and K562 expressing HLA-E (inhibition)
Type: cell-based, human
Conditions: NKG2A+/NKG2C- NK cells, K562/HLA-E, Trial 5
Where no end group is shown, it is not given here.
Reported percentage of IFNG+ NK cells is given for each of the following sequences.
Value kind: percentage of IFNG+ NK cells (%)

[[record]]
sequence_record = "NMPARTVLF [human14, peptide MTREX 490-498 derived from the human proteome]"
value_kind = "percentage of IFNG+ NK cells"
measured = 2.12

[[record]]
sequence_record = "TLPKRGLFL [human2, TLPKRGLFL]"
value_kind = "percentage of IFNG+ NK cells"
measured = 5.78

[[record]]
sequence_record = "VNPGRSLFL [human5, VNPGRSLFL]"
value_kind = "percentage of IFNG+ NK cells"
measured = 16.5

[[record]]
sequence_record = "QMPSRSLLF [human1, QMPSRSLLF]"
value_kind = "percentage of IFNG+ NK cells"
measured = 2.48

[[record]]
sequence_record = "VMPPRTLLL [human15, peptide HLA-A 3-11 derived from the human proteome]"
value_kind = "percentage of IFNG+ NK cells"
measured = 0.19

[[record]]
sequence_record = "VLPHRTQFL [CMV1, novel CMV-derived peptide UL120 72-80, Merlin]"
value_kind = "percentage of IFNG+ NK cells"
measured = 1.35

[[record]]
sequence_record = "VMPGRTLCF [human11, peptide TACR3 226-234 derived from the human proteome]"
value_kind = "percentage of IFNG+ NK cells"
measured = 0.09

[[record]]
sequence_record = "VMAPQSLLL [VMAPQSLLL (PQS), negative control peptide, reference compound]"
value_kind = "percentage of IFNG+ NK cells"
measured = 14.1

[[record]]
sequence_record = "ILTDRSLWL [human4, peptide FBXO41 670-678 derived from the human proteome]"
value_kind = "percentage of IFNG+ NK cells"
measured = 6.82

